Record form. Attribute: pIC50. Fill in for each entry.
# Target entity: NAD-dependent protein deacetylase sirtuin-1 (Homo sapiens)
# Sequence (Q96EB6 whole entry): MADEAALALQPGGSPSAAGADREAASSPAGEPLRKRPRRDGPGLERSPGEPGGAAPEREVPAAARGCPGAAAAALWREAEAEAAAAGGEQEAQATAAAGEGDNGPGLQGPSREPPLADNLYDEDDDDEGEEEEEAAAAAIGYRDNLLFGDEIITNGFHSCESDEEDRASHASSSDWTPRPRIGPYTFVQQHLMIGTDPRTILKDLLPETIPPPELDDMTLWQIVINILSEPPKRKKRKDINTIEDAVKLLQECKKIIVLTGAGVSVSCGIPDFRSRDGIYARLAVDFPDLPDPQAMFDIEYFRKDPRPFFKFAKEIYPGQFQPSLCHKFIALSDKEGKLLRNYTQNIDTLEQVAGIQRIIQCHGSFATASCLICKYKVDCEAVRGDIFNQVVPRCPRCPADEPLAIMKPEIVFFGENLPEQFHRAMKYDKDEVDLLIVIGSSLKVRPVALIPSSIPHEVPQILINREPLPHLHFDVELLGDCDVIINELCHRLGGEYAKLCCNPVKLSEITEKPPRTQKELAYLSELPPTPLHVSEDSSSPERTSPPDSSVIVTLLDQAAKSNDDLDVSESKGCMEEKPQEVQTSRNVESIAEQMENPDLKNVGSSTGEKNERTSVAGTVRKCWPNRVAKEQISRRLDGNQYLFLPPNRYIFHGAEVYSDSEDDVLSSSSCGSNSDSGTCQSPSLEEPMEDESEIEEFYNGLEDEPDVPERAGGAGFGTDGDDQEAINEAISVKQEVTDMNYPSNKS
# Measurement notes: Inhibition of His-tagged SIRT1 (1 to 747) (unknown origin)-mediated deacetylation of Ac-RHKKAcW-NH2 substrate preincubated for 20 mins measured after 30 mins by mass spectrophotometric analysis
# pIC50 = -log10(concentration in molar units)

Challenge: Given the molecule NC(=O)c1cc2ncnc(N3CCC(CCNC(=O)c4cccs4)CC3)c2s1 , what is its reported pIC50?
Response given: 8.24

Challenge: Do the same for CCNC(=O)c1cccc(C(=O)NCCC2CCN(c3ncnc4cc(C(N)=O)sc34)CC2)c1 please
Response given: 8.28

Challenge: Do the same for CC(C)(C)OC(=O)c1ccc(C(=O)NCCC2CCN(c3ncnc4cc(C(N)=O)sc34)CC2)s1 please
Response given: 8.17
